These measurements were taken from PubChem BioAssay (NCI).

TGI values for the compounds below.
Test system: SK-MEL-2 melanoma
experimental_details: NCI tumour cell line growth inhibition, 48 h

{"compound": "CC(C)CCN(CCC(C)C)CC(=O)Nc1ccc(S(=O)(=O)c2ccc(NC(=O)CN(CCC(C)C)CCC(C)C)cc2)cc1", "test_target": "SK-MEL-2 melanoma", "TGI": "6.14 µM"}
{"compound": "CCCC(=O)OCC1OC(n2cc(F)c(=O)[nH]c2=O)C(F)C1O (stereo not given)", "test_target": "SK-MEL-2 melanoma", "TGI": "> 100 µM"}
{"compound": "CN1CCc2ccccc2C1Cc1ccccc1NC(=O)c1sc2ccccc2c1Cl (stereo not given)", "test_target": "SK-MEL-2 melanoma", "TGI": "> 100 µM"}
{"compound": "Cc1nnn(C)c1-c1cnc2c3ccc(C(C)(C)O)cc3n([C@H](c3ccccc3)C3CCOCC3)c2c1", "test_target": "SK-MEL-2 melanoma", "TGI": "30.7 µM"}
{"compound": "CCCCN(CCCC)P(=O)(Oc1ccccc1)Oc1ccccc1", "test_target": "SK-MEL-2 melanoma", "TGI": "28 µM"}
{"compound": "COc1cc(/C=N/NC(=O)c2c(Cl)c(Cl)c(Cl)c(Cl)c2-c2nc3ccc(C(=O)c4ccccc4)cc3[nH]2)ccc1O", "test_target": "SK-MEL-2 melanoma", "TGI": "> 100 µM"}
{"compound": "O=C1CN=C(c2ccc[nH]2)c2cc(Cl)ccc2N1", "test_target": "SK-MEL-2 melanoma", "TGI": "> 100 µM"}
{"compound": "CCCCCCCCCCCCCCCCc1c(C(=O)OC)nc(NC#N)[nH]c1=O", "test_target": "SK-MEL-2 melanoma", "TGI": "> 25 µM"}
{"compound": "NC1CCN(c2nc3ccccc3c3c2CCCC3)CC1", "test_target": "SK-MEL-2 melanoma", "TGI": "10.5 µM"}
{"compound": "COc1cc(OCCN(C)C)c2[nH]c(C(=O)N3CC(CCl)c4c3cc(N)c3ccccc43)cc2c1 (stereo not given)", "test_target": "SK-MEL-2 melanoma", "TGI": "< 0.01 µM"}
{"compound": "COc1cccc(/C=N\\NC(=O)c2ccncc2)c1O", "test_target": "SK-MEL-2 melanoma", "TGI": "> 100 µM"}
{"compound": "Cc1cc(Cl)ccc1NC(=O)/C(=N\\NC(C)(C)C)C(C#N)c1nc(-c2ccc([N+](=O)[O-])cc2)cs1 (stereo not given)", "test_target": "SK-MEL-2 melanoma", "TGI": "> 100 µM"}
{"compound": "CCc1cc2c(c(OCC(F)(F)F)c(C(=O)NC3CCN(C(=O)CO)CC3)n2C)c(=O)n1CC(=O)c1ccccc1", "test_target": "SK-MEL-2 melanoma", "TGI": "> 100 µM"}
{"compound": "O=c1c2ccccc2n2c(-c3ccccc3O)nnc2n1-c1ccccc1", "test_target": "SK-MEL-2 melanoma", "TGI": "> 100 µM"}
{"compound": "CC(=O)NC(CCCCNCc1ccccc1)C(=O)NCc1ccccc1 (stereo not given)", "test_target": "SK-MEL-2 melanoma", "TGI": "> 100 µM"}
{"compound": "O=Cc1ccc(-c2ccc(-c3nc4ccccc4s3)cc2)o1", "test_target": "SK-MEL-2 melanoma", "TGI": "> 100 µM"}
{"compound": "O=c1[nH]c(-c2ccc(Cl)c(Cl)c2)cn1-c1ccc(Cl)cc1", "test_target": "SK-MEL-2 melanoma", "TGI": "64.6 µM"}
{"compound": "CCOC(=O)C(C)NC(=O)NC12CC3CC(CC(F)(C3)C1)C2 (stereo not given)", "test_target": "SK-MEL-2 melanoma", "TGI": "> 100 µM"}
{"compound": "O=C(N/C(=C\\c1ccccc1)c1nc2ccccc2c(=O)o1)c1ccccc1", "test_target": "SK-MEL-2 melanoma", "TGI": "> 100 µM"}
{"compound": "Cc1ccc(-c2cc(C(=O)Nc3ccc(S(=O)(=O)N4CCCCC4)cc3)[nH]n2)c(O)c1", "test_target": "SK-MEL-2 melanoma", "TGI": "> 100 µM"}
{"compound": "Cc1cc(N(CCC#N)CCC#N)ccc1/C=C1N=C(/C=C\\c2ccccc2)N(NC(=O)CC(=O)Nc2ccccc2Cl)C\\1=O", "test_target": "SK-MEL-2 melanoma", "TGI": "> 100 µM"}
{"compound": "Clc1ccc(-c2cnc3c(-c4ccnc(N5CCNCC5)c4)cnn3c2)cc1", "test_target": "SK-MEL-2 melanoma", "TGI": "1.69 µM"}
{"compound": "c1cc[c]([Ge]([O]c2cccc3cccnc23)([c]2ccccc2)[c]2ccccc2)cc1", "test_target": "SK-MEL-2 melanoma", "TGI": "11.7 µM"}
{"compound": "O=C1/C(=C/c2ccccc2Cl)COc2ccc(Br)cc21", "test_target": "SK-MEL-2 melanoma", "TGI": "> 100 µM"}
{"compound": "Brc1ccc(-c2[nH]c3ccccc3c2/C=N\\Nc2ccc(-c3nc4ccccc4[nH]3)cc2)cc1", "test_target": "SK-MEL-2 melanoma", "TGI": "> 35.4 µM"}
{"compound": "Nc1ccc(Oc2ccc(C34CC5CC(C3)CC(c3ccc(Oc6ccc(N)cc6C(F)(F)F)cc3)(C5)C4)cc2)c(C(F)(F)F)c1", "test_target": "SK-MEL-2 melanoma", "TGI": "28.8 µM"}
{"compound": "O=C1CCC2(c3ccc(Cl)cc3)Nc3ccccc3N12 (stereo not given)", "test_target": "SK-MEL-2 melanoma", "TGI": "> 100 µM"}
{"compound": "NC(=O)c1cn(C2CC(O)C(CO)O2)c2ncnc(N)c12 (stereo not given)", "test_target": "SK-MEL-2 melanoma", "TGI": "> 28.2 µM"}
{"compound": "COc1cccc(/C=C2\\CCC(CN(C)C)C2=O)c1 (stereo not given)", "test_target": "SK-MEL-2 melanoma", "TGI": "26.2 µM"}
{"compound": "O=C1Nc2cccc(Cl)c2/C1=C\\c1cccnc1", "test_target": "SK-MEL-2 melanoma", "TGI": "25.9 µM"}
{"compound": "CCC1C(NC(=O)OC)C(=O)N1[C@@H](C)c1ccccc1 (stereo not given in full)", "test_target": "SK-MEL-2 melanoma", "TGI": "> 100 µM"}
{"compound": "COc1c(Sc2c(SCSc3cnc4ccccc4c3Sc3cnc4ccccc4c3OC)cnc3ccccc23)cnc2ccccc12", "test_target": "SK-MEL-2 melanoma", "TGI": "> 100 µM"}
{"compound": "CC(C)CC(=O)CC(C)[C@]1(CCCOCc2ccccc2)C(=O)N2CCC3(C[C@@]24CCC[C@H]41)OCCO3 (stereo not given in full)", "test_target": "SK-MEL-2 melanoma", "TGI": "> 10 µM"}
{"compound": "O=C1OC(c2ccc(O)cc2)(c2ccc(O)cc2)c2ccc(Cl)c3cccc1c23 (tested in a mixture with another compound)", "test_target": "SK-MEL-2 melanoma", "TGI": "31.6 µM"}
{"compound": "COC(=O)CN(CC(=O)NCCNC(=O)OC(C)(C)C)C1CCCCC1N(CC(=O)OC)CC(=O)OC (stereo not given)", "test_target": "SK-MEL-2 melanoma", "TGI": "> 100 µM"}
{"compound": "O=C1N[C@H]2C(=O)c3c(Br)sc(Br)c3[C@H]2O1", "test_target": "SK-MEL-2 melanoma", "TGI": "31.9 µM"}
{"compound": "Cn1cnc([N+](=O)[O-])c1Sc1n[nH]c(-c2ccc(Cl)cc2)n1", "test_target": "SK-MEL-2 melanoma", "TGI": "29.9 µM"}
{"compound": "CC(C)N(C(=O)C12C3C4C5C3C1(C(=O)O)C5C42)C(C)C (stereo not given)", "test_target": "SK-MEL-2 melanoma", "TGI": "> 100 µM"}
{"compound": "CCOC(=O)c1cc(=O)c2cccc3c2n1CCS3", "test_target": "SK-MEL-2 melanoma", "TGI": "> 100 µM"}
{"compound": "CC(=O)Nc1ccc(S(=O)(=O)c2nnc(NC(C)=O)s2)cc1", "test_target": "SK-MEL-2 melanoma", "TGI": "> 100 µM"}
